tested on: DeltatarO mutant; test: S. aureus survival, RN4220 and DeltatarO strains – OD600, teichoic acid synthesis inhibitors, primary screen (AID 463173); details: S. aureus RN4220 wild type/DeltatarO growth, OD600, 18 h, active compounds read low, screened at 18.75 µg/mL (by protocol)
Among all 52,000 compounds or so, about 4,300 (8.3%) were called active. For the sample, actives were picked, then their nearest neighbours and some compounds at random.
Labelling: survival reported below 90% becomes rule met; at or above becomes rule not met.

Please review the entries below; each comes with its answer.
- O=C(CSc1nc(-c2ccc(F)cc2)cc(C(F)(F)F)n1)NCc1ccccc1: rule met
- Cc1c(C(=O)Nc2ccc(-n3c(C)nc4ccccc4c3=O)cc2)cccc1[N+](=O)[O-]: rule not met
- Cc1nc2sccn2c(=O)c1S(=O)(=O)Nc1cccc(Cl)c1C: rule met
- Cc1nc2ccc(C(=O)N3CCN(Cc4ccccc4)CC3)cc2[nH]1: rule not met
- CCCNC(=O)C1CCN(C(=O)N2CC(C)Oc3ccccc32)CC1 (stereo unspecified): rule met
- CCOc1cc2sc(N3CCC(C(=O)Nc4ccc(C)cc4C)CC3)nc2cc1Br: rule met
- COc1ccccc1CNC(=O)CSc1nc(-c2ccc(OC)c(OC)c2)cc(C(F)(F)F)n1: rule met
- CN1C(=O)c2ccccc2Sc2ccc(NC(=O)N3CCN(c4cccc(Cl)c4)CC3)cc21: rule met
- NC(=O)c1ccccc1NC(=O)Cn1nc(Cc2cccnc2)c2ccccc2c1=O: rule met
- CNC(=O)CSc1nnc(NC(=O)Nc2ccccc2)s1: rule not met

Would you kindly look at the next entry?
Say whether its survival is strictly beneath 90%. Entry: O=C1CC(Sc2ncccc2C(=O)O)C(=O)N1 (stereo unspecified)
rule not met

###

tested on: DeltatarO mutant; test: S. aureus survival, RN4220 and DeltatarO strains – OD600, teichoic acid synthesis inhibitors, primary screen (AID 463173); conditions: S. aureus RN4220 wild type/DeltatarO growth, OD600, 18 h, screened at 18.75 µg/mL (by protocol)
The campaign covered roughly 52,000 compounds. About 4,300 (8.3%) were called active. Cut-off read from the data, not from the text of the source: active = survival mostly below about 52% (no sharp cut-off); inactive = mostly above about 56%. Only a selection was taken, and actives are over-represented in it overall.
Use one of these outcomes when replying: active, inactive

Please review the entries below; each comes with its answer.
• Cc1cc(N2CCCCC2)nc2ccc(NC(=O)/C=C/c3ccccc3OC(C)C)cc12 = inactive
• Cc1ccc2c(c1)-c1onc(C(=O)N3CCN(c4ccc(Cl)cc4)CC3)c1CO2 = inactive
• Cc1cc(N2CCCCC2)nc2ccc(NC(=O)/C=C/c3ccc(OCCC(C)C)cc3)cc12 = inactive
• O=C(NCc1ccccc1)c1ccc(CSc2nc3cccnc3n2Cc2cccc(F)c2)cc1 = inactive
• Cc1ccc2c(c1)-c1onc(C(=O)N3CCN(c4cc(C)ccc4C)CC3)c1CO2 = inactive
• Cc1ccc(N2CC(C(=O)NCc3nnnn3-c3ccc(C)c(C)c3)CC2=O)cc1 (stereo not given) = inactive
• Cc1ccc(N2CCN(C(=O)c3nn(C)c4c3CS(=O)(=O)c3ccccc3-4)CC2)c(C)c1 = inactive
• COC(=O)c1c(NC(=O)c2cc(=O)c3c(C)cc(C)cc3o2)sc2c1CCCC2 = inactive
• COc1ccc(C)cc1Nc1nc(-c2cccc(Cl)c2)c2c(n1)-c1ccccc1OC2 = inactive
• COC(=O)c1c(NC(=O)C2c3ccccc3Oc3ccccc32)sc2c1CCC(C)C2 (stereo not given) = inactive

Which result was noted for this compound in the test: CCCOC(=O)c1c(NC(=O)C2c3ccccc3Oc3ccccc32)sc2c1CCCC2
inactive

Thanks! And Cn1nc(C(=O)N2CCN(c3ccccc3F)CC2)c2c1-c1ccccc1SC2 ?
active

Thanks! And Cc1cc(N2CCCCC2)nc2ccc(NC(=O)/C=C/c3ccccc3Cl)cc12 ?
active

Thanks! And Cc1cc(C)c2c(=O)cc(C(=O)Nc3sc4c(c3C#N)CCCC4)oc2c1 ?
active

Thanks! And CC(C)CCNC(=O)c1cnc2sc(N3CCCCCC3)nn2c1=O ?
inactive

Thanks! And CCOC(=O)c1c(NC(=O)c2cc(=O)c3c(C)cc(C)cc3o2)sc2c1CCC2 ?
inactive

Thanks! And CCOc1ccc(-n2cc(-c3ccccc3)c3c(NC4CCCC4)ncnc32)cc1 ?
inactive

###

tested on: DeltatarO mutant; assay: S. aureus survival, RN4220 and DeltatarO strains – OD600, teichoic acid synthesis inhibitors, primary screen (AID 463173); conditions: S. aureus RN4220 wild type/DeltatarO growth, OD600, 18 h, active compounds read low, screened at 18.75 µg/mL (by protocol)
Among all 52,000 compounds or so, about 4,300 (8.3%) were called active. Shown is part of a subset that was picked to be rich in actives.
survival values, listed per item
Answer in %, number only, no unit symbol.

Below: 2 compounds and their reported survival.
* Cc1ccc(OCCCCn2c(-c3ccc(Cl)cc3)nc3ccccc3c2=O)cc1 | 68
* CCOc1ccc(N2CC(c3nc4ccccc4n3CCCOc3ccccc3)CC2=O)cc1 (configuration not stated) | 51

Item CCCc1nc2sc3c(N4CCCCC4)ncnc3c2c2c1CCCC2 has what recorded survival?
12

Thanks! And COc1ccc(NC(=O)CN(C)S(=O)(=O)c2cnc[nH]2)cc1 ?
95

Thanks! And Cc1cccc(CSc2nc3cc(C(=O)NC4CCCC4)ccc3c(=O)n2Cc2ccccc2)c1 ?
69

Thanks! And CCOc1ccccc1N1CC(c2nc3ccccc3n2CCOc2ccccc2)CC1=O (configuration not stated) ?
32

Thanks! And Cc1ccc(OCC(=O)Nc2ccc3nc(SCC(=O)N4CCOCC4)sc3c2)cc1 ?
86

Thanks! And COc1ccc(CNC(=O)CCNS(=O)(=O)c2ccc3c(c2)CCCC(=O)N3)cc1 ?
119

Thanks! And CCOC(=O)Cn1c(C2CC(=O)N(c3ccc(C)cc3)C2)nc2ccccc21 (configuration not stated) ?
66

Thanks! And Cc1ccc(S(=O)(=O)Nc2ccc(-c3ccc(N4CCCCCC4)nn3)cc2)c(C)c1 ?
70

Thanks! And COc1ccc(CNC(=O)c2nc(S(=O)(=O)Cc3ccccc3)ncc2Cl)cc1 ?
18

Thanks! And CCC(=O)N1c2ccccc2CC1C(=O)N1CCN(c2cccc(Cl)c2)CC1 (configuration not stated) ?
77

Thanks! And CCOc1ccccc1N1CC(c2nc3ccccc3n2CCOc2ccc(OC)cc2)CC1=O (configuration not stated) ?
62

Thanks! And CCc1ccc(N2CC(c3nc4ccccc4n3Cc3ccccc3C)CC2=O)cc1 (configuration not stated) ?
52

Thanks! And CCOC(=O)c1cnc(SCC)[nH]c1=O ?
41

Thanks! And CCCc1nc2sc3c(N4CCC(C)CC4)ncnc3c2c2c1CCCC2 ?
61

###

test system: DeltatarO mutant; assay: S. aureus survival, RN4220 and DeltatarO strains – OD600, teichoic acid synthesis inhibitors, primary screen (AID 463173); settings: S. aureus RN4220 wild type/DeltatarO growth, OD600, 18 h, screened at 18.75 µg/mL (by protocol)
About 4,300 (8.3%) of roughly 52,000 compounds were called active. Cut-off read from the data, not from the text of the source: active = survival mostly below about 52% (no sharp cut-off); inactive = mostly above about 56%. What follows is part of a selection rich in actives, with near analogues and random picks from the rest.
Use one of these outcomes when replying: active, inactive

Please review the entries below; each comes with its answer.
* CCOC(=O)c1cccc(NC(=O)c2cc(S(=O)(=O)N3CCCCCC3)cn2C)c1 | inactive
* COc1cc2ccccc2cc1C(=O)Nc1ccc(Cl)c(-c2nc3ccccc3o2)c1 | active
* COc1cc2ccccc2cc1C(=O)Nc1cccc(-c2nc3cc(C)ccc3o2)c1C | inactive
* N#Cc1c(N2C(=O)C3C4C=CC(C4)C3C2=O)sc2c1CCCC2 (configuration not stated) | inactive
* CCCC(=O)Nc1cccc(-c2nc3cc(C)c(C)cc3o2)c1C | inactive

Which result was noted for this molecule in the test: Cc1cc2oc(C(=O)Nc3cccc(-c4nc5ccccc5o4)c3)c(C)c2cc1C
inactive

Thanks! And COc1cc2ccccc2cc1C(=O)Nc1cccc(-c2nc3cc(C)c(C)cc3o2)c1 ?
active

Thanks! And COc1ccc(OC)c(S(=O)(=O)N2CCC(c3ccncc3)CC2)c1 ?
inactive

Thanks! And N#Cc1c(-n2ncnc2-c2cccc(Cl)c2)sc2c1CCCCC2 ?
inactive

Thanks! And Cc1ccc(S(=O)(=O)CC(=O)Nc2sc3c(c2C#N)CCCC3)cc1 ?
inactive

Thanks! And Cc1ccnc(NS(=O)(=O)c2ccc(NC(=O)c3cc(=O)c4ccc(C)c(C)c4o3)cc2)n1 ?
inactive

Thanks! And N#Cc1c(-n2ncnc2-c2ccc(F)cc2)sc2c1CCCCC2 ?
active

Thanks! And CCCCNCc1cccn1-c1sc2c(c1C#N)CCCC2 ?
inactive

Thanks! And CC1CCN(S(=O)(=O)c2ccc3c(c2)CCN3C(=O)Nc2ccc(Br)cc2F)CC1 ?
inactive

Thanks! And CC(C)CCOc1ccc(C(=O)Nc2sc3c(c2C#N)CCCCC3)cc1 ?
inactive

Thanks! And COc1cccc(NC(=O)c2cc(CN3CCOCC3)on2)c1 ?
inactive

Thanks! And COc1cc2ccccc2cc1C(=O)Nc1cc(-c2nc3ccccc3o2)ccc1C ?
inactive

Thanks! And CCc1ccc(OCC2c3cc(OC)c(OC)cc3CCN2C(=O)COc2ccccc2)cc1 (configuration not stated) ?
inactive

Thanks! And Cc1cc2nc(-c3cccc(NC(=O)c4cccc5ccccc45)c3)oc2cc1C ?
inactive

Thanks! And CCCCNC(=O)CSc1nc(-c2ccc(OC)cc2)cc(C(F)(F)F)n1 ?
inactive

Thanks! And COc1ccc(-c2nnn(CC(=O)Nc3sc4c(c3C#N)CCCC4)n2)cc1 ?
inactive

Thanks! And COc1ccc(-n2ccnc2SCC(=O)Nc2cccc(OC)c2)cc1 ?
inactive
